The measurements presented in this section are drawn from the RNAGym collection of RNA variant scans (doi:10.7554/elife.90254).

B1: OR4K15 (parent)
chain: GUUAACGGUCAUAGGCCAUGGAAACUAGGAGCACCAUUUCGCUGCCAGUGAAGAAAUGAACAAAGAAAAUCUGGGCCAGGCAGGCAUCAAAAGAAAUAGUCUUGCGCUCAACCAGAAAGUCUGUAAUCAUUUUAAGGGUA

Variants of: B1
ASSAY INFO: self-cleavage, relative activity (ratio to wild type); higher = more cleavage; in vitro, sequencing; the parent is a self-cleaving ribozyme
The following variants are shown together with reported self-cleavage values.
EXPERIMENTAL READOUT: self-cleavage

* U37A A64G | 1.44
* A68U U103C | 1.42
* U37G A68G | 1.5
* G21U A22G | 1.71
* A30G U100C | 1.93
* A33G U103A | 0.46
* U70C A110G | 0.06
* A54U U131C | 1.11
* A11U A89U | 1.59
* A64G U87C | 0.87
* A56U A114U | 0.04
* A36G A110G | 0.07
* U103C A126G | 0.35
* U57G U127C | 1.33
* U124A U133G | 0.43
* U37C C107U | 0.02
* G28A A129G | 0.99
* U43C C112U | 0
* A54G A111U | 0.06
* A63G A129U | 0.61
* A114U A118U | 0.02
* A55G U57C | 1.13
* G7A A18C | 1.98
* A59G U132A | 0.98
* G106A A126G | 0
* U26A C34U | 1.99
* U39C C71A | 0.38
* C40A G65A | 1
* A60G U120C | 0.82
* A30U A129U | 0.63
* A13U A52G | 1.18
* U37C A91U | 2
* U72A U127A | 0.64
* A13U U102C | 1.56
* A11G G31C | 1.04
* G73A A95G | 0.28
* A59U A111U | 0.13
* C25A U38C | 1.05
* A67U C85U | 1.15
* A114G A126G | 0.28
* A30G A89G | 0.71
* A22G G136A | 0.6
* A27G U131C | 1.67
* U38G A59G | 0.9
* A22G A90G | 1.12
* U9C C77U | 1.18
* G75C U103G | 0.02
* A51G A64U | 1.75
* A89C A110G | 0.18
* A110U A140G | 2.04
* A27G A114G | 0.27
* A68G | 0.98
* U19A A117U | 0.55
* U70A U103A | 0.67
* A22U A96U | 1.54
* C35U A118G | 0.99
* U39C A140G | 1.57
* C85U A116U | 0.17
* A23U U97G | 1.35
* A22U U87C | 0.88
* A67G U97A | 1.71
* A95G A129G | 2.42
* A62U U132A | 2.19
* A92U A129G | 1.13
* C45U U108A | 0.01
* C10A U38A | 0.81
* A52C A64G | 1.38
* A68G A116U | 0.21
* A90G U131C | 0.31
* U72A A86G | 0.17
* U87C A90G | 0.3
* C40U U97C | 0.94
* U49G U102C | 1.95
* A62G A134U | 1.75
* A69G U108C | 0.02
* U38C U127G | 1.17
* U3A U127C | 0.63
* C6A U49C | 0.74
* A86G A91C | 0.64
* A66G | 1.09
* A125C A126G | 0.12
* U122C U127C | 0.25
* U87G U103C | 0.22
